B1: Formin-binding protein 4, residues 593 to 636; numbered along this chain, Q8N3X1 (parent)
chain: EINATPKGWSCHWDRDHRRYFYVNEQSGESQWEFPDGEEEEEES

- Variants of: B1
- assay comment: abundance fitness (aPCA) (normalised: wild type 0, dead -1); higher = more abundant; growth selection in yeast, the domain comes from the species named
- experimental parameters: Homo sapiens
# class assignment by measured abundance fitness: class 1 (below -0.4), class 2 (-0.4 to below -0.1), class 3 (-0.1 or more)

>>> discrete_label("EINATPKGWSCLWDRDHRRYFYVNEQSGESQWEFPDGEEEEEES [H12L]")
"class 2"
>>> discrete_label("EINATPKGWSCHWDRDHRRYFYVNEQSDESQWEFPDGEEEEEES [G28D]")
"class 1"
>>> discrete_label("EINATPKGWSCHWDRDHRRYFYVNEQSGLSQWEFPDGEEEEEES [E29L]")
"class 2"
>>> discrete_label("EINATPKGWSCHWDRDHRRYFYVNEQSGESQWEFPDGEEEEEED [S44D]")
"class 3"
>>> discrete_label("WINATPKGWSCHWDRDHRRYFYVNEQSGESQWEFPDGEEEEEES [E1W]")
"class 3"
>>> discrete_label("EINACPKGWSCHWDRDHRRYFYVNEQSGESQWEFPDGEEEEEES [T5C]")
"class 3"
>>> discrete_label("EINATPHGWSCHWDRDHRRYFYVNEQSGESQWEFPDGEEEEEES [K7H]")
"class 3"
>>> discrete_label("EINATPKGWSCHWDRDHRRYFYVNEQSGESQWEFPDGTEEEEES [E38T]")
"class 3"
>>> discrete_label("EINATPKGWSCHWDRDHRRYFYVYEQSGESQWEFPDGEEEEEES [N24Y]")
"class 1"
>>> discrete_label("EINATPKGWSCHWDRDHRRYFYVNEASGESQWEFPDGEEEEEES [Q26A]")
"class 3"
>>> discrete_label("EINATPKGWSCHWDRDHRRYFYVNEQSGESQWEFPDGELEEEES [E39L]")
"class 3"
>>> discrete_label("EINATPKGWSCHWDRDHRRYFYMNEQSGESQWEFPDGEEEEEES [V23M]")
"class 2"
>>> discrete_label("EINATPKGWSCHWDRDHRRYFYVNEPSGESQWEFPDGEEEEEES [Q26P]")
"class 1"
>>> discrete_label("EINATPKGWSCHWDRDHRRYFYVNEQSFESQWEFPDGEEEEEES [G28F]")
"class 1"
>>> discrete_label("EINATPKGWSCHWDRDHRRYFYVNEQSGESQWEFPDGEEEYEES [E41Y]")
"class 1"
>>> discrete_label("EINATPKGWSCHWDLDHRRYFYVNEQSGESQWEFPDGEEEEEES [R15L]")
"class 2"
>>> discrete_label("EINATPKGWSCHWDRDHRRYFYVNEQSGESQWEFPDGEEMEEES [E40M]")
"class 2"
>>> discrete_label("EINGTPKGWSCHWDRDHRRYFYVNEQSGESQWEFPDGEEEEEES [A4G]")
"class 3"
>>> discrete_label("VINATPKGWSCHWDRDHRRYFYVNEQSGESQWEFPDGEEEEEES [E1V]")
"class 1"
>>> discrete_label("EINATPKGWSCHWDRDHRRYFYVNEQSGESQWETPDGEEEEEES [F34T]")
"class 3"
>>> discrete_label("EINATPKVWSCHWDRDHRRYFYVNEQSGESQWEFPDGEEEEEES [G8V]")
"class 1"
>>> discrete_label("EINATPKGWSCHWDRDHRRYFYVVEQSGESQWEFPDGEEEEEES [N24V]")
"class 1"
>>> discrete_label("EINATPKGWSCHWDRDHRRYFYVTEQSGESQWEFPDGEEEEEES [N24T]")
"class 1"
>>> discrete_label("EINATPKGWSCHWDRDHRRYFYVNEQSGESAWEFPDGEEEEEES [Q31A]")
"class 2"
>>> discrete_label("NINATPKGWSCHWDRDHRRYFYVNEQSGESQWEFPDGEEEEEES [E1N]")
"class 2"
>>> discrete_label("EINATPKNWSCHWDRDHRRYFYVNEQSGESQWEFPDGEEEEEES [G8N]")
"class 2"
>>> discrete_label("EINATPKGWSCHWDRDHRRYFYVNEQSGESQWEFPDGEEEEWES [E42W]")
"class 2"
>>> discrete_label("EINATPKGWSCHWDRDHRRYFNVNEQSGESQWEFPDGEEEEEES [Y22N]")
"class 3"
>>> discrete_label("EINATPKGWSCHWDRDHRRYFYVNEQSGESQWEFFDGEEEEEES [P35F]")
"class 1"
>>> discrete_label("EINATPKGWSCHWDRVHRRYFYVNEQSGESQWEFPDGEEEEEES [D16V]")
"class 2"
>>> discrete_label("EINATPKGQSCHWDRDHRRYFYVNEQSGESQWEFPDGEEEEEES [W9Q]")
"class 1"
>>> discrete_label("EINATPKGWSCHWDRDHRRYFYVNEQDGESQWEFPDGEEEEEES [S27D]")
"class 1"
>>> discrete_label("EINATPKGWSCHWDRDHRRTFYVNEQSGESQWEFPDGEEEEEES [Y20T]")
"class 2"
>>> discrete_label("EINATPKGWSCHWDRDHRRYFYVNEQSGESQWEFPDGEEVEEES [E40V]")
"class 3"
>>> discrete_label("EINATPKGWSCHWDRDHRRYFYKNEQSGESQWEFPDGEEEEEES [V23K]")
"class 3"
>>> discrete_label("DINATPKGWSCHWDRDHRRYFYVNEQSGESQWEFPDGEEEEEES [E1D]")
"class 2"
>>> discrete_label("EINATPKGWSCHWARDHRRYFYVNEQSGESQWEFPDGEEEEEES [D14A]")
"class 1"
>>> discrete_label("EINATPKGWSCHWDRDHRRYFYTNEQSGESQWEFPDGEEEEEES [V23T]")
"class 3"
>>> discrete_label("EINATPKGWSCHWDRDHRRYFYVNMQSGESQWEFPDGEEEEEES [E25M]")
"class 2"
